Assay: Pharmacokinetic properties in mice
Assay type: in vivo
Settings: male, ICR, mouse, plasma, po, 5 mg/kg
PROPERTY LABEL: Tmax (h)
Kindly answer with a numeric value in h, unit omitted.

# input // lookup Tmax for CC(C)CC(=O)c1ccc(OC(F)F)c(OC2CCOC2)c1 (stereo not shown)
# output 2

----------
Target: PDE7A1 (130–482) (Homo sapiens)
Sequence (Q13946 130-482): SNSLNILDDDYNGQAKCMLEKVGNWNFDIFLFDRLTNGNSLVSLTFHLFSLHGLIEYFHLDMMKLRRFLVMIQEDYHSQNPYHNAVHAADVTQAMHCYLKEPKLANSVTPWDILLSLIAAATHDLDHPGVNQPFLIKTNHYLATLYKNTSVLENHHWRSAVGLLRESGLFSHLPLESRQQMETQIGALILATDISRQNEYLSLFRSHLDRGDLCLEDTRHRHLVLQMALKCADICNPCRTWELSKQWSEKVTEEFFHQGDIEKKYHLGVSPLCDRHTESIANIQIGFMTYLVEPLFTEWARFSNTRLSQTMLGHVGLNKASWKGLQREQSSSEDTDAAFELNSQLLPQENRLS
PROPERTY LABEL: IC50 (µM)
Use µM as the unit, but write only the number.

# input Dear colleague, I am looking for the recorded IC50 of the following compound: CC(C)CC(=O)c1ccc(OC(F)F)c(O[C@H]2CCOC2)c1 [(S)-Zl-n-91]
# output 17

----------
Target: PDE11A4 (563–934) (Homo sapiens, UniProt Q9HCR9)
Sequence (Q9HCR9 563-933 limits assumed): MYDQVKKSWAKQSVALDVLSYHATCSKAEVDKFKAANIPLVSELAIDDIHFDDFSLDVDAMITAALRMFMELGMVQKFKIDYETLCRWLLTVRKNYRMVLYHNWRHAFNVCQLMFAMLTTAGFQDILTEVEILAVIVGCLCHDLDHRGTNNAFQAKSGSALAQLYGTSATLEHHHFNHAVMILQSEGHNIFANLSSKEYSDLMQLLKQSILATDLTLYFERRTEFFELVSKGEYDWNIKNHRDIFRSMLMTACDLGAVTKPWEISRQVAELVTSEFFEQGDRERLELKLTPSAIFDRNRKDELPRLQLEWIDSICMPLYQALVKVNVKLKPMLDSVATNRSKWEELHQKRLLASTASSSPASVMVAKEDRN
PROPERTY LABEL: pIC50
The read-out pIC50 is expressed as -log10 of concentration in moles per litre.

# input Bench note: what pIC50 did CC(C)CC(=O)c1ccc(OC(F)F)c(O[C@H]2CCOC2)c1 [(S)-Zl-n-91] show?
# output 4.64

----------
Experiment: Pharmacokinetic properties in mice
Assay type: in vivo
Settings: male, ICR, mouse, plasma, iv, 5 mg/kg
PROPERTY LABEL: AUC(0-t) (ng·h/mL)
Give the quantity in ng·h/mL, number only.

# input # lookup: AUC(0-t) of CC(C)CC(=O)c1ccc(OC(F)F)c(OC2CCOC2)c1 (stereo not shown)
# output 725

----------
Test: Pharmacokinetic properties in mice
Type: in vivo
Details: male, ICR, mouse, plasma, iv, 5 mg/kg
PROPERTY LABEL: C0 (ng/mL)
Give the value, in units of ng/mL, as a plain number.

# input Please look up its C0: CC(C)CC(=O)c1ccc(OC(F)F)c(OC2CCOC2)c1 (stereo not shown)
# output 6030
